Substrate: PET
assayOverview: Proxy for plastic degradation [HPLC-UV] (mmol)
conditionSummary: pH 8; 60 °C
property: Proxy for plastic degradation
Lab note: write the figure by itself, no unit.

unnamed (protein) VEIHDLHFYNRYNHTVAATIYLPENLNNSPAVIFCGGWLSSREMYSWLPEELAKRGYVVLAIDPSGNGDSYGKLPSFKIFGVRIFSVIDGPYNYINGVWSSDIYDAVTFLTTNYRVSKNVALIGHSMGGFAVTDEALKDGRIKTVIALSDADIYAIKNLKIPVMVITGDFDLIINDNLVAIPGYNAANPPKELIVIKFGTHNGFTNLIWPMPPWNHNVTLYYLSSWLDCFLREDRESCKTLEKPHKYLSTLSESKCNLDGKEKVIKRATGRRKTFTAFLLIFLFLAVLILYLRSKEG | 0

Shift focus to the following entry.
Proxy for plastic degradation measured on unnamed (protein) QSYQIGHTSIIYYDANRSNREIPTEIYYPAENEGDNVPVADPYSDGFPVISFGHGRMTTWSAYENIWSVLVQEGYIVAFACTEMSFIPNHTEFGLDIAFLVNRIQAEGIDSTSLFHGKIGTTSAVMGHSMGGATCFLSAQGNETITAITSFVSGNTSPSPIDAAVDITIPALLFSGSDDYMTPAEEYQIPIYEALNSDCKTLISITGGNHCQFAEYDYYCDTMEDNYPEPALTREEQHEVTNRFFISWVNFNLKGDFGAWYEFEDSLMTSEAITYMHDCDVTSVLEEPSETNIFMEYGLSNHPNPFNLTTTIKYELPKSAHISLKIYNISSKLIKTLVDEKENTGYNSVIWDGKDENGNPVPSGIYLYNIEIDGRVFSETKRMILLK = 0
